system: HCT-116 colorectal carcinoma cells; test: MTT cell viability assay, HCT-116; format: cell-based, human; conditions: Homo sapiens, HCT-116, 72 h, read-out: GI50 values (M) mean ± SD, HCT-116
quantity.name: GI50 (M)
Enter your answer as a number in M; do not include the unit.

>>> result("N#Cc1ccc(-c2csc(NN=Cc3c(O)cc(O)cc3O)n2)cc1")
"4.7e-06"
>>> result("N#Cc1ccc(-c2csc(N/N=C/c3cccc(F)c3)n2)cc1")
"2.2e-06"
>>> result("N#Cc1ccc(-c2csc(NN=Cc3cc(F)cc(Br)c3)n2)cc1")
"8.1e-06"
>>> result("N#Cc1ccc(-c2csc(N/N=C/c3cccc(I)c3)n2)cc1")
"1.13e-05"
>>> result("COc1cc(C=NNc2nc(-c3ccc(C#N)cc3)cs2)cc(OC)c1OC")
"1.6e-06"
>>> result("N#Cc1ccc(-c2csc(NN=Cc3cc(Cl)ccc3O)n2)cc1")
"9.7e-06"

Which GI50 is listed for N#Cc1ccc(-c2csc(NN=Cc3ccc(Cl)c(Cl)c3)n2)cc1 ?
2.72e-05

Which GI50 is listed for COc1ccc(OC)c(C=NNc2nc(-c3ccc(C#N)cc3)cs2)c1 ?
6.9e-06

----------
test system: HCT-116 colorectal carcinoma cells; experiment: MTT cell viability assay, HCT-116; assay type: cell-based, human; details: Homo sapiens, HCT-116, 72 h, read-out: GI50 values (M) mean ± SD, HCT-116
In this section, each of the molecules is paired with its reported GI50.
Enter your answer as a number in M; do not include the unit.

// worked examples, GI50 included
>>> result("N#Cc1ccc(-c2csc(NN=Cc3cc(Br)cs3)n2)cc1")
"6.2e-06"
>>> result("N#Cc1ccc(-c2csc(NN=Cc3cc(Br)cc([N+](=O)[O-])c3)n2)cc1")
"3e-06"
>>> result("N#Cc1ccc(-c2csc(NN=Cc3cc(F)cc(C(F)(F)F)c3)n2)cc1")
"2.2e-06"
>>> result("Cc1cc(C)c(C=NNc2nc(-c3ccc(C#N)cc3)cs2)c(C)c1")
"4e-06"
>>> result("N#Cc1ccc(-c2csc(N/N=C/c3ccccc3F)n2)cc1")
"3.1e-06"

Which GI50 is listed for COc1ccc(C=NNc2nc(-c3ccc(C#N)cc3)cs2)c(C)c1 ?
3.7e-05

Which GI50 is listed for N#Cc1ccc(-c2csc(NN=Cc3sccc3Br)n2)cc1 ?
1.6e-06

Which GI50 is listed for COc1cc(OC)c(OC)cc1C=NNc1nc(-c2ccc(C#N)cc2)cs1 ?
1.9e-06

Which GI50 is listed for Cc1cccc(C=NNc2nc(-c3ccc(C#N)cc3)cs2)c1O ?
1.6e-06

Which GI50 is listed for N#Cc1ccc(-c2csc(NN=Cc3ccc(C(F)(F)F)cc3C(F)(F)F)n2)cc1 ?
4.7e-06

Which GI50 is listed for COc1cc(C=NNc2nc(-c3ccc(C#N)cc3)cs2)cc(OC)c1 ?
3.56e-05

Which GI50 is listed for Cc1ccc(C)c(C=NNc2nc(-c3ccc(C#N)cc3)cs2)c1 ?
8e-06

Which GI50 is listed for Cc1ccc(C=NNc2nc(-c3ccc(C#N)cc3)cs2)cc1C ?
6.5e-06

Which GI50 is listed for N#Cc1ccc(-c2csc(NN=Cc3c(F)cc(F)cc3F)n2)cc1 ?
1.5e-06

Which GI50 is listed for COc1ccc(C=NNc2nc(-c3ccc(C#N)cc3)cs2)c(OC)c1 ?
8.4e-06

Which GI50 is listed for CCOc1cc(C=NNc2nc(-c3ccc(C#N)cc3)cs2)ccc1O ?
8.4e-06

Which GI50 is listed for Cc1nc(C=NNc2nc(-c3ccc(C#N)cc3)cs2)sc1C ?
4.4e-06

Which GI50 is listed for N#Cc1ccc(-c2csc(NN=Cc3c(Cl)cccc3Cl)n2)cc1 ?
1.1e-06

Which GI50 is listed for N#Cc1ccc(-c2csc(NN=Cc3cc(Br)ccc3O)n2)cc1 ?
4.4e-06

Which GI50 is listed for N#Cc1ccc(-c2csc(NN=Cc3c(F)c(F)c(F)c(F)c3F)n2)cc1 ?
4.2e-06
